# Lookup of reported koff keyed by entry
Molecular target: T1, tip-chimeric peptide IhfA5-mIhfB4NTHI (nontypeable Haemophilus influenzae …)
T1 construct: also called IHF(NTHI) tip chimeric peptide; IHFNTHI tip chimeric peptide
T1 peptide: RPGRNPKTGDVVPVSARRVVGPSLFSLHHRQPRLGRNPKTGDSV
Assay: SPR Biacore 3000, peptide immobilized, HuMab as analyte
Form entry: value (s⁻¹) — number only.

- BINDER: "humanized anti-tip monoclonal antibody, heavy chain SEQ ID NO: 2 and light chain SEQ ID NO: 7 (antibody, V domains shown, also called H10211 (1F8.F1 Humanized HC2) + L10210 (1F8.F1 Humanized LC1)) VH: EVQLVESGGGLVQPGGSLRLSCAASGFTFRTYAMSWVRQAPGKGLEWVATIGSDRRHTYYPDSVKGRFTISRDNSKNTLYLQMNSLRAEDTAVYYCVGPYDGYYGEFDYWGQGTLVTVSS VL: DVVMTQSPLSLPVTLGQPASISCRSSQSLLDSDGKTFLNWLQQRPGQSPRRLIYLVSKLDSGVPDRFSGSGSGTDFTLKISRVEAEDVGVYYCWQGTHFPYTFGQGTKLEIKR"
  RECORDED VALUE: 0.0026
- BINDER: "humanized anti-tip monoclonal antibody, heavy chain SEQ ID NO: 1 and light chain SEQ ID NO: 8 (antibody, V domains shown, also called H10210 (1F8.F1 Humanized HC1) + L10211 (1F8.F1 Humanized LC2)) VH: EVKLVESGGGLVQPGGSLRLSCAASGFTFRTYAMSWVRQAPGKGLEWVATIGSDRRHTYYPDSVKGRFTISRDNAKNTLYLQMNSLRAEDTAVYYCVGPYDGYYGEFDYWGQGTLVTVSS VL: DVVMTQSPLSLPVTLGQPASISCRSSQSLLDSDGKTFLNWLQQRPGQSPRRLIYLVSKRDSGVPDRFSGSGSGTDFTLKISRVEAEDVGVYYCWQGTHFPYTFGQGTKLEIKR"
  RECORDED VALUE: "1.1e-05"

In the following, a different binder is considered.
Return reported koff. Input binder: humanized anti-tip monoclonal antibody, heavy chain SEQ ID NO: 3 and light chain SEQ ID NO: 7 (antibody, V domains shown, also called H10212 (1F8.F1 Humanized HC3) + L10210 (1F8.F1 Humanized LC1)) VH: EVKLVQSGAEVKKPGASVKVSCKASGFTFRTYAMSWVRQAPGQRLEWVATIGSDRRHTYYPDKFQGRVTITRDNAKNTLYMELSSLRSEDTAVYYCVGPYDGYYGEFDYWGQGTLVTVSS VL: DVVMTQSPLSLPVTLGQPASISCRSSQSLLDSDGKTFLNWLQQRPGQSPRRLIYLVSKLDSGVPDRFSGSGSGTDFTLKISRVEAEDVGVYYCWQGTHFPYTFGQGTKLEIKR 0.0004
